# key: entry, value: inhibition in vivo at 5 mg/kg
# Test system: blood sugar levels
# ASSAY_TEXT: Effect of controlling increase of blood sugar levels in sucrose-loaded rats
# Assay type: in vivo, rats of the SD series
# REPORTED_CONDITIONS: Rattus norvegicus, po, 3 h; 2 g/Kg sucrose and 5 mg/Kg test compound orally; ΔAUC over 180 minutes; male SD rats; read-out: Blood Level Increase Inhibition Ratio (%)
Could you give me the number in %? Just the number is fine.

INSERT INTO results (query_smiles, experimental_endpoint, obs_value) VALUES
  ('CN1C[C@H](O)[C@@H](O)[C@H](O[C@H]2O[C@H](CO)[C@@H](O[C@H]3O[C@H](CO)[C@@H](O[C@H]4O[C@H](CO)[C@@H](O[C@H]5O[C@H](CO)[C@@H](O[C@H]6O[C@H](CO)[C@@H](O)[C@H](O)[C@H]6O)[C@H](O)[C@H]5O)[C@H](O)[C@H]4O)[C@H](O)[C@H]3O)[C@H](O)[C@H]2O)[C@H]1CO', 'inhibition in vivo at 5 mg/kg', 23),
  ('OC[C@H]1NC[C@H](O)[C@@H](O)[C@@H]1O[C@H]1O[C@H](CO)[C@@H](O[C@H]2O[C@H](CO)[C@@H](O[C@H]3O[C@H](CO)[C@@H](O[C@H]4O[C@H](CO)[C@@H](O)[C@H](O)[C@H]4O)[C@H](O)[C@H]3O)[C@H](O)[C@H]2O)[C@H](O)[C@H]1O', 'inhibition in vivo at 5 mg/kg', 56),
  ('CCCN1C[C@H](O)[C@@H](O)[C@H](O[C@H]2O[C@H](CO)[C@@H](O)[C@H](O)[C@H]2O)[C@H]1CO', 'inhibition in vivo at 5 mg/kg', 24);

Consider `OC[C@H]1NC[C@H](O)[C@@H](O)[C@@H]1O` . Its measured inhibition in vivo at 5 mg/kg is 19

Consider `CN1C[C@H](O)[C@@H](O)[C@H](O[C@H]2O[C@H](CO)[C@@H](O[C@H]3O[C@H](CO)[C@@H](O[C@H]4O[C@H](CO)[C@@H](O[C@H]5O[C@H](CO)[C@@H](O)[C@H](O)[C@H]5O)[C@H](O)[C@H]4O)[C@H](O)[C@H]3O)[C@H](O)[C@H]2O)[C@H]1CO` . Its measured inhibition in vivo at 5 mg/kg is 25

Consider `CN1C[C@H](O)[C@@H](O)[C@H](O[C@H]2O[C@H](CO)[C@@H](O[C@H]3O[C@H](CO)[C@@H](O[C@H]4O[C@H](CO)[C@@H](O)[C@H](O)[C@H]4O)[C@H](O)[C@H]3O)[C@H](O)[C@H]2O)[C@H]1CO` . Its measured inhibition in vivo at 5 mg/kg is 29

Consider `CCN1C[C@H](O)[C@@H](O)[C@H](O[C@H]2O[C@H](CO)[C@@H](O)[C@H](O)[C@H]2O)[C@H]1CO` . Its measured inhibition in vivo at 5 mg/kg is 22

Consider `OC[C@H]1NC[C@H](O)[C@@H](O)[C@@H]1O[C@H]1O[C@H](CO)[C@@H](O[C@H]2O[C@H](CO)[C@@H](O)[C@H](O)[C@H]2O)[C@H](O)[C@H]1O` . Its measured inhibition in vivo at 5 mg/kg is 35

Consider `OC[C@H]1NC[C@H](O)[C@@H](O)[C@@H]1O[C@H]1O[C@H](CO)[C@@H](O[C@H]2O[C@H](CO)[C@@H](O[C@H]3O[C@H](CO)[C@@H](O)[C@H](O)[C@H]3O)[C@H](O)[C@H]2O)[C@H](O)[C@H]1O` . Its measured inhibition in vivo at 5 mg/kg is 31

Consider `CN1C[C@H](O)[C@@H](O)[C@H](O[C@H]2O[C@H](CO)[C@@H](O)[C@H](O)[C@H]2O)[C@H]1CO` . Its measured inhibition in vivo at 5 mg/kg is 56

Consider `CCN1C[C@H](O)[C@@H](O)[C@H](O[C@H]2O[C@H](CO)[C@@H](O[C@H]3O[C@H](CO)[C@@H](O)[C@H](O)[C@H]3O)[C@H](O)[C@H]2O)[C@H]1CO` . Its measured inhibition in vivo at 5 mg/kg is 35

Consider `CN1C[C@H](O)[C@@H](O)[C@H](O[C@H]2O[C@H](CO)[C@@H](O[C@H]3O[C@H](CO)[C@@H](O)[C@H](O)[C@H]3O)[C@H](O)[C@H]2O)[C@H]1CO` . Its measured inhibition in vivo at 5 mg/kg is 62

Consider `OC[C@H]1NC[C@H](O)[C@@H](O)[C@@H]1O[C@H]1O[C@H](CO)[C@@H](O)[C@H](O)[C@H]1O` . Its measured inhibition in vivo at 5 mg/kg is 44

The measurements presented in this section are drawn from patent US4338433A.
